B1: library; numbered along this chain (parent)
chain: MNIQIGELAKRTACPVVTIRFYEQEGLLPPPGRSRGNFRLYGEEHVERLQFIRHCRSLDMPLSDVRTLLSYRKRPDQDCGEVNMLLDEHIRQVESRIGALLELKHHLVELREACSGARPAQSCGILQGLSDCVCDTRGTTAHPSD

Variants of: B1
Procedure Summary: sfGFP reporter fluorescence (15 h) (µM FITC); higher = stronger transcriptional activation
Condition Description: library round: Round 1; ligand: 30 µM Zn
Answer each item with its documented sfGFP reporter fluorescence.
Please reply with the number alone, leaving off any unit.

variant G128H P143W , sfGFP reporter fluorescence observed: 0.159

Item: D64K N83F | sfGFP reporter fluorescence: 0.143

The measured sfGFP reporter fluorescence associated with N83S R111D reads 0.0759

Entry D64L K104V L107R ; sfGFP reporter fluorescence = 0.0593

Given item N83T D131C , the value recorded as its sfGFP reporter fluorescence is 0.0784

// sfGFP reporter fluorescence value for D64T N83T R111I : 1.12

// sfGFP reporter fluorescence lookup, variant = D131T D135A , result: 0.365

GET /value?item= N83T D135A &field=sfGFP reporter fluorescence returns 0.152

Entry G128S D135A ; sfGFP reporter fluorescence = 0.604
